Target: Cytochrome P450 3A4 (Homo sapiens)
Sequence (P08684 whole entry): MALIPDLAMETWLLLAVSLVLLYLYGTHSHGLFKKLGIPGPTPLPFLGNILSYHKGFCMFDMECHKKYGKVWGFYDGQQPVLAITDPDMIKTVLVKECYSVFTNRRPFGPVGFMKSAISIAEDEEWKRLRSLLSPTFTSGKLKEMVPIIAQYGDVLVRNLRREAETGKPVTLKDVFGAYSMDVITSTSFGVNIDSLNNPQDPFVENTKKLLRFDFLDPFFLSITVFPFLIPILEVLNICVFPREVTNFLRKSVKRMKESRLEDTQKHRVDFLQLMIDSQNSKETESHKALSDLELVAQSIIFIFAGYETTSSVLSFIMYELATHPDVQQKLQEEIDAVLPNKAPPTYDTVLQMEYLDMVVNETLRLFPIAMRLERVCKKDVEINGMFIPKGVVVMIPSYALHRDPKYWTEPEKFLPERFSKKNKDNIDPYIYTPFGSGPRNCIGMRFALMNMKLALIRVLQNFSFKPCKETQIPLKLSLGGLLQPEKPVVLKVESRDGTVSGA
pIC50: −log10 of the molar value.
measuredMetric: pIC50

Look up pIC50: `O=C(N[C@H]1C[C@@H](c2ccccc2)CN(CC(F)(F)F)C1=O)c1ccc2c(c1)C[C@@]1(C2)C(=O)Nc2ncccc21`
< 5.00

---

Target: Calcitonin-gene-related peptide receptor, CALCRL/RAMP1 (Homo sapiens, UniProt O60894+Q16602)
Sequence (O60894 whole entry): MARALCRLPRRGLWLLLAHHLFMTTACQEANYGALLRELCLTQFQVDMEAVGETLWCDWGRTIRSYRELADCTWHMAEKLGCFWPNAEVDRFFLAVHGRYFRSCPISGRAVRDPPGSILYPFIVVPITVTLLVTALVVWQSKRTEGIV
Sequence (Q16602 whole entry): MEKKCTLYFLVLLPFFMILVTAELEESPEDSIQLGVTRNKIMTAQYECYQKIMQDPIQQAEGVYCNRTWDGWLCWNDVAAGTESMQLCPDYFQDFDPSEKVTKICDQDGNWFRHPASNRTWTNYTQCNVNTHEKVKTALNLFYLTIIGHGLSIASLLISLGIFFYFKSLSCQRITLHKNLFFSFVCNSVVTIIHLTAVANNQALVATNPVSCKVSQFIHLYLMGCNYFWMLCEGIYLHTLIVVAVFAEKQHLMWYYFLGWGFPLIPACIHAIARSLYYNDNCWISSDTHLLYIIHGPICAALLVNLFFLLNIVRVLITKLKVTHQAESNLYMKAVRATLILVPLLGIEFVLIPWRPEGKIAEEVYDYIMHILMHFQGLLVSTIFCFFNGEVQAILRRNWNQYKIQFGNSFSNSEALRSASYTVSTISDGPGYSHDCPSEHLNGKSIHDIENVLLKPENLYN
Experiment: Antagonist activity at human CLR/RAMP1 expressed in HEK293 cells assessed as inhibition of CGRP-induced cAMP production in presence of 50% human serum
Format: functional, cell-based
measuredMetric: pIC50
Quick note: pIC50 values are minus log10 of concentrations in mol/L.

Reference set (5 entries):
compound	pIC50
O=C(N[C@@H]1CC[C@@H](c2ccccc2)CN(CC(F)(F)F)C1=O)c1ccc2c(c1)C[C@@]1(C2)C(=O)Nc2ncccc21	6.70
CC(C)CN1C(=O)[C@H](NC(=O)c2ccc3c(c2)C[C@@]2(C3)C(=O)Nc3ncccc32)C[C@H]1c1ccccc1 (mixture of isomers)	7.31
O=C(N[C@H]1C[C@H](c2ccccc2)N(CC(F)(F)F)C1=O)c1ccc2c(c1)C[C@@]1(C2)C(=O)Nc2ncccc21	7.20
O=C(N[C@H]1C[C@@H](c2ccccc2)CN(CC(F)(F)F)C1=O)c1ccc2c(c1)C[C@@]1(C2)C(=O)Nc2ncccc21	8.00
O=C(N[C@@H]1CC[C@@H](c2cccc(F)c2F)CN(CC(F)(F)F)C1=O)c1ccc2c(c1)C[C@]1(C2)C(=O)Nc2ncccc21	6.41

If you can, please state the reported pIC50 value of O=C(NC1CC(c2ccccc2)CN(CC(F)(F)F)C1=O)c1ccc2c(c1)C[C@@]1(C2)C(=O)Nc2ncccc21 (mixture of isomers) .
7.92

Note, next up: `O=C(N[C@H]1C[C@H](c2ccccc2)CN(CC(F)(F)F)C1=O)c1ccc2c(c1)C[C@@]1(C2)C(=O)Nc2ncccc21`
6.82

Here is the next compound: `O=C(N[C@@H]1CC[C@@H](c2cccc(F)c2F)CN(CC(F)(F)F)C1=O)c1ccc2c(c1)C[C@@]1(C2)C(=O)Nc2ncccc21`
7.25

Do the same for `CC(C)CN1C(=O)[C@@H](NC(=O)c2ccc3c(c2)C[C@@]2(C3)C(=O)Nc3ncccc32)C[C@@H]1c1ccccc1` please
7.41
